# assay-info: CR6086 pharmacokinetics in rats
# Format: in vivo, rat
# conditions: rat, plasma; oral, 3 mg/kg; median
readout-kind: Tmax (min)
Lab book: enter the figure in min, no units written.

Value of measured Tmax for the entry O=C([O-])c1ccc(C2(NC(=O)[C@H]3CC4(CCN3Cc3ccc(C(F)(F)F)cc3)CC4)CC2)cc1.[Na+] : 15

---

# assay-info: CR6086 pharmacokinetics in rats
# Format: in vivo, rat
# conditions: rat, plasma; oral, 15 mg/kg; read-out: AUC24
readout-kind: AUC

Form field AUC, entry O=C([O-])c1ccc(C2(NC(=O)[C@H]3CC4(CCN3Cc3ccc(C(F)(F)F)cc3)CC4)CC2)cc1.[Na+] : 61600 ng·h/mL

Where do these numbers come from? They come from paper PMC5831858.
